Taken from paper PMC6335420.

Molecular target: T1, BsGpsB (B. subtilis, UniProt P0CI74 1-98)
T1 construct: GpsB, Bacillus subtilis, full-length protein; purification not described here; also called full-length B. subtilis GpsB
T1 sequence (looked up): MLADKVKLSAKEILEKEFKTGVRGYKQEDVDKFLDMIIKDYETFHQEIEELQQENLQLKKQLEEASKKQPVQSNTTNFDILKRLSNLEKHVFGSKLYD
Assay: fluorescence polarisation; GpsB protein titrated into TAMRA- or fluorescein-labelled peptide; 10 mM Tris.HCl pH 8.0, 250 mM NaCl, 0.1% reduced Triton X-100; all data fitted to a 1:1 interaction model, Kd ± standard error
Conditions: both partners purified
No end group written: not given here.
value kind: Kd (µM)
Numbers only, in µM.

Return value of Kd for input GSMADQFNSREARRKANC(TAMRA‑maleimide)KSSPSPKKGKKRKKGG (PBP1 (ponA), Bacillus subtilis, residues 1-32, cytoplasmic mini-domain; also called TAMRA-labelled BsPBP1 1-32 (Ser16Cys); 16-labelled peptide) [TAMRA-BsPBP11-32 wildtype] , no commentary.
160
